# target.or.test.system: autophosphorylated EGF-receptor (from lysates of EGF-stimulated A431 cells) (human, UniProt P00533, autophosphorylated on tyrosine (sites not given))
# protocol.description: binding of GST-PTB to the activated EGFR, normalized to wild type
Reported Relative Binding values follow for various binders
Answer with a bare number; do not write a unit.

See these solved cases before continuing.
The recorded Relative Binding for entry GST-ShcC PTB domain mutant G32R (other) LGPRVTYVVKYLGCIEVLRSMRSLDFSTRTQVTREAISRVCERVPGAKGALKKRKPPSKMLSSILGKSNLQFAGMSISLTISTASLNLRTPDSKQIIANHHMRSISFASGGDPDTTDYVAYVAKDPVNRRACHILECCDGLAQDVIGSIGQAFELRFKQYL equals 0.93

Value of measured Relative Binding for the entry GST-ShcC PTB domain mutant V36M (other) LGPGVTYMVKYLGCIEVLRSMRSLDFSTRTQVTREAISRVCERVPGAKGALKKRKPPSKMLSSILGKSNLQFAGMSISLTISTASLNLRTPDSKQIIANHHMRSISFASGGDPDTTDYVAYVAKDPVNRRACHILECCDGLAQDVIGSIGQAFELRFKQYL : 1

Sure, the documented Relative Binding for GST-ShcC PTB domain mutant G139E/D140N (other) LGPGVTYVVKYLGCIEVLRSMRSLDFSTRTQVTREAISRVCERVPGAKGALKKRKPPSKMLSSILGKSNLQFAGMSISLTISTASLNLRTPDSKQIIANHHMRSISFASGENPDTTDYVAYVAKDPVNRRACHILECCDGLAQDVIGSIGQAFELRFKQYL is 0.073

Just so you know, measured Relative Binding for GST-ShcC PTB domain mutant M130I/S132V (other) LGPGVTYVVKYLGCIEVLRSMRSLDFSTRTQVTREAISRVCERVPGAKGALKKRKPPSKMLSSILGKSNLQFAGMSISLTISTASLNLRTPDSKQIIANHHIRVISFASGGDPDTTDYVAYVAKDPVNRRACHILECCDGLAQDVIGSIGQAFELRFKQYL came out at 1

Entry GST-ShcC PTB domain mutant G30R/H128Q (other) LRPGVTYVVKYLGCIEVLRSMRSLDFSTRTQVTREAISRVCERVPGAKGALKKRKPPSKMLSSILGKSNLQFAGMSISLTISTASLNLRTPDSKQIIANQHMRSISFASGGDPDTTDYVAYVAKDPVNRRACHILECCDGLAQDVIGSIGQAFELRFKQYL ; Relative Binding = 1

Given item GST-ShcC PTB domain mutant G32R/A136T/C166R (other) LGPRVTYVVKYLGCIEVLRSMRSLDFSTRTQVTREAISRVCERVPGAKGALKKRKPPSKMLSSILGKSNLQFAGMSISLTISTASLNLRTPDSKQIIANHHMRSISFTSGGDPDTTDYVAYVAKDPVNRRACHILECRDGLAQDVIGSIGQAFELRFKQYL , the value recorded as its Relative Binding is 0.14

The binder listed as GST-ShcC PTB domain mutant S86C (other) LGPGVTYVVKYLGCIEVLRSMRSLDFSTRTQVTREAISRVCERVPGAKGALKKRKPPCKMLSSILGKSNLQFAGMSISLTISTASLNLRTPDSKQIIANHHMRSISFASGGDPDTTDYVAYVAKDPVNRRACHILECCDGLAQDVIGSIGQAFELRFKQYL shows Relative Binding equal to 1.2

Per the record, GST-ShcC PTB domain mutant A136T/C166R (other) LGPGVTYVVKYLGCIEVLRSMRSLDFSTRTQVTREAISRVCERVPGAKGALKKRKPPSKMLSSILGKSNLQFAGMSISLTISTASLNLRTPDSKQIIANHHMRSISFTSGGDPDTTDYVAYVAKDPVNRRACHILECRDGLAQDVIGSIGQAFELRFKQYL has Relative Binding of 0.12

Continuing:
# binder GST-ShcC PTB domain mutant A136T (other) LGPGVTYVVKYLGCIEVLRSMRSLDFSTRTQVTREAISRVCERVPGAKGALKKRKPPSKMLSSILGKSNLQFAGMSISLTISTASLNLRTPDSKQIIANHHMRSISFTSGGDPDTTDYVAYVAKDPVNRRACHILECCDGLAQDVIGSIGQAFELRFKQYL ; its Relative Binding = 0.16

Form field Relative Binding, entry GST-ShcC PTB domain mutant T118S (other) LGPGVTYVVKYLGCIEVLRSMRSLDFSTRTQVTREAISRVCERVPGAKGALKKRKPPSKMLSSILGKSNLQFAGMSISLTISTASLNLRSPDSKQIIANHHMRSISFASGGDPDTTDYVAYVAKDPVNRRACHILECCDGLAQDVIGSIGQAFELRFKQYL : 0.81

Record summary for GST-ShcC PTB domain mutant T111I (other) LGPGVTYVVKYLGCIEVLRSMRSLDFSTRTQVTREAISRVCERVPGAKGALKKRKPPSKMLSSILGKSNLQFAGMSISLTISIASLNLRTPDSKQIIANHHMRSISFASGGDPDTTDYVAYVAKDPVNRRACHILECCDGLAQDVIGSIGQAFELRFKQYL : reported Relative Binding = 1.2

Recorded result, GST fusion protein of the ShcC PTB domain (wild type) (other) LGPGVTYVVKYLGCIEVLRSMRSLDFSTRTQVTREAISRVCERVPGAKGALKKRKPPSKMLSSILGKSNLQFAGMSISLTISTASLNLRTPDSKQIIANHHMRSISFASGGDPDTTDYVAYVAKDPVNRRACHILECCDGLAQDVIGSIGQAFELRFKQYL , Relative Binding: 1

Measured Relative Binding of GST-ShcC PTB domain mutant E63G (other) LGPGVTYVVKYLGCIEVLRSMRSLDFSTRTQVTRGAISRVCERVPGAKGALKKRKPPSKMLSSILGKSNLQFAGMSISLTISTASLNLRTPDSKQIIANHHMRSISFASGGDPDTTDYVAYVAKDPVNRRACHILECCDGLAQDVIGSIGQAFELRFKQYL : 0.087

// Relative Binding lookup, binder = GST-ShcC PTB domain mutant T58A (other) LGPGVTYVVKYLGCIEVLRSMRSLDFSTRAQVTREAISRVCERVPGAKGALKKRKPPSKMLSSILGKSNLQFAGMSISLTISTASLNLRTPDSKQIIANHHMRSISFASGGDPDTTDYVAYVAKDPVNRRACHILECCDGLAQDVIGSIGQAFELRFKQYL , result: 1.2
